A collection of binders and their measured Apical domain:HSA
biological target: T1, apical domain of CD71 (Screen 3: 'cynomolgus apical domain of human CD71') (cynomolgus (as 'cynomolgus apical …)); assay: primary ELISA screen, RLU on apical domain over RLU on HSA
T1 construct: domain: apical domain; Species is told ambiguously
assay_metric: Apical domain:HSA (ratio)

1. CD71-binding FN3 domain of SEQ ID NO: 344 (designed binder, not shown: C-terminal poly-histidine tag added to each FN3 domain) MSLPAPKNLFVSRVTEDSARLSWTAPDAAFDSFEIGYWENAYKGEAIVLTVPGSERSYDLTGLKPGTEYWVQIGGVKGGNWSAPLSAIFTT ... 92
2. CD71-binding FN3 domain of SEQ ID NO: 345 (designed binder, not shown: C-terminal poly-histidine tag added to each FN3 domain) MSLPAPKNLVVSRVTEDSAHLSWTAPDAAFDSFEIGYFENDYFGEAIVLTVPGSERSYDLTGLKPGTEYVVFIGGVKGGKWSAPLSAIFTT ... 195
3. CD71-binding FN3 domain of SEQ ID NO: 337 (designed binder, not shown: C-terminal poly-histidine tag added to each FN3 domain) MSLPAPKNLVVSRVTEDSARLSWTAPDAAFDSFFIGYLEPQPPGEAIHLYVPGSERSYDLTGLKPGTEYNVTIQGVKGGFPSIPLIASFTT ... 385
4. CD71-binding FN3 domain of SEQ ID NO: 334 (designed binder, not shown: C-terminal poly-histidine tag added to each FN3 domain) MSLPAPKNLVVSRVTEDSARLSWTAPDAAFDSFEIAYQELSLWGEAIVLTVPGSERSYDLTGLKPGTEYWVQIGGVKGGIWSSPLVASFTT ... 378
